Source of measurements: paper PMC8126637

Record type: Kd measurement. Applies to: Universal stress protein (USP, Rv1636) (Mycobacterium tuberculosis, UniProt P9WFC9)

Worked examples follow.
chemicalSmiles: NC(=O)NCCC[C@@H](NC(=O)CCn1ccc2c(Cl)cccc21)C(=O)O
measuredOn: Universal stress protein (USP, Rv1636) (Mycobacterium tuberculosis, UniProt P9WFC9)
Sequence (P9WFC9 whole entry): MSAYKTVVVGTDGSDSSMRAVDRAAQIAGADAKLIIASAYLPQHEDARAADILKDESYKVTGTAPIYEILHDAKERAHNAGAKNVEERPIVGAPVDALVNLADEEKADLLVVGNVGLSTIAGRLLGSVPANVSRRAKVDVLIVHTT
Kd: 1720 µM

chemicalSmiles: COc1cc2c(cc1OC)-c1cc(NCCCCN)nc(=O)n1CC2
measuredOn: Universal stress protein (USP, Rv1636) (Mycobacterium tuberculosis, UniProt P9WFC9)
Kd: 998 µM

Please examine the following record next.
Q: Could you tell me which Kd is on file for "COc1cc(/C=C/C(=O)CC(=O)/C=C/c2ccc(O)c(OC)c2)ccc1O" ?
Ans: 17.4 µM
